- Tested on: biotinyl-Val-oxazolone
- assayMethodText: self-aminoacylation, catalytic enhancement (BVO) (fold over background); higher = more active; k-Seq, kA / k0A0; sequences stand for … in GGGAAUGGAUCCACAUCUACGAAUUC…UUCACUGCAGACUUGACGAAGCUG
Variants at the floor of the assay were thinned out.
Use 3 as the dividing line for self-aminoacylation, with the line itself on the true (1) side and lower values as false (0).

sequenceCode | labelValue
AUUACCCUGCUCAUCUAGUGA [Fam2.1 aminoacylation ribozyme variant] | true (1)
AUUCACCAAGGUCAUCGAGUG [Fam2.2 aminoacylation ribozyme variant] | false (0)
CCACACCUCAAGCAAUCAGUC [Fam1B.1 aminoacylation ribozyme variant] | false (0)
AGUCACCUACGUCAUCGGGUG [Fam2.2 aminoacylation ribozyme variant] | true (1)
AUUACCCGGGUCAUCGUGUGA [Fam2.1 aminoacylation ribozyme variant] | true (1)
AUUAACCUAUGUCAUCGGGUG [Fam2.2 aminoacylation ribozyme variant] | true (1)
AUUGCCCUGGUCAUCCAGUGA [Fam2.1 aminoacylation ribozyme variant] | true (1)
AUUAGCCUGGUCAUCGCGUGA [Fam2.1 aminoacylation ribozyme variant] | true (1)
CUACUUCAAACACUCGGGCUG [Fam1A.1 aminoacylation ribozyme variant] | false (0)
AUUUACCUAGGUAAUCGGGUG [Fam2.2 aminoacylation ribozyme variant] | false (0)
AAGUUCGCUAAUAGUCGGAAG [Fam3.1 aminoacylation ribozyme variant] | false (0)
AUGCACCUAGGUGAUCGGGUG [Fam2.2 aminoacylation ribozyme variant] | true (1)
AUUCACCUAUGUCAUCCGGUG [Fam2.2 aminoacylation ribozyme variant] | true (1)
UUUAGCCUGGUCAUCGAGUGA [Fam2.1 aminoacylation ribozyme variant] | true (1)
AAGUUUGCUAAAAGUCGCUAG [Fam3.1 aminoacylation ribozyme variant] | false (0)
AUGACCCUGGUAAUCGAGUGA [Fam2.1 aminoacylation ribozyme variant] | false (0)
GUUACCCUGGUUAUCGAGUGA [Fam2.1 aminoacylation ribozyme variant] | true (1)
AUUGCCCGGGUCAUCGAGUGA [Fam2.1 aminoacylation ribozyme variant] | true (1)
